- System: HOSE2C
- Assay: drug sensitivity score (DSS) from 5-point dose-response viability curve (DSS (area-under-curve based score)); higher = more sensitive (stronger growth inhibition or killing); extreme values may be limits of the assay
- Measurement parameters: exposure time: 72 h; concentration range: 5 concentrations over 10,000-fold range
Experimental endpoint: drug sensitivity score
No unit in the answer, please; the number alone is enough.

Record excerpt, results attached:
- C[C@@H]1CN(CC(=O)Nc2ccc3c(c2)Cc2cccc(-c4cc(=O)cc(N5CCOCC5)o4)c2S3)C[C@H](C)O1: 0
- COc1ncc(-c2ccc3nccc(-c4ccnnc4)c3c2)cc1NS(=O)(=O)c1ccc(F)cc1F: 18.1

Exercise: Would you mind telling me what drug sensitivity score value was observed for O=C(Nc1ccncc1)C(=O)c1cn(Cc2ccc(Cl)cc2)c2ccccc12 ?
Solution: 18.3

Exercise: Then what about the compound CCN(c1cc(-c2ccc(CN3CCOCC3)cc2)cc(C(=O)NCc2c(C)cc(C)[nH]c2=O)c1C)C1CCOCC1 ?
Solution: 0

Exercise: Then what about the compound CCc1c2c(nc3ccc(O)cc13)-c1cc3c(c(=O)n1C2)COC(=O)[C@]3(O)CC ?
Solution: 36.4

Exercise: Then what about the compound Cc1cc2c(F)c(Oc3ncnn4cc(OC[C@@H](C)O)c(C)c34)ccc2[nH]1 ?
Solution: 0

Exercise: Then what about the compound CCc1cncnc1N1CCN(Cc2nc3ccc(C(F)(F)F)cc3[nH]2)CC1 ?
Solution: 0

Exercise: Then what about the compound CC(=O)c1c(C)c2cnc(Nc3ccc(N4CCNCC4)cn3)nc2n(C2CCCC2)c1=O ?
Solution: 2.9

Exercise: Then what about the compound C[C@H](Nc1ncnc2[nH]cnc12)c1cc2ccc(F)cc2nc1-c1ccccn1 ?
Solution: 0

Exercise: Then what about the compound COc1cc(Nc2ncc(F)c(Nc3ccc4c(n3)NC(=O)C(C)(C)O4)n2)cc(OC)c1OC ?
Solution: 6.2

Exercise: Then what about the compound CS(=O)(=O)c1ccc(C(=O)Nc2ccc(Cl)c(-c3ccccn3)c2)c(Cl)c1 ?
Solution: 0

Exercise: Then what about the compound CC[C@H](C)C(=O)O[C@H]1C[C@@H](C)C=C2C=C[C@H](C)[C@H](CC[C@@H]3C[C@@H](O)CC(=O)O3)[C@H]21 ?
Solution: 7.8

----------
- Tested on: OV90
- Assay: drug sensitivity score (DSS) from 5-point dose-response viability curve (DSS (area-under-curve based score)); higher = more sensitive (stronger growth inhibition or killing); extreme values may be limits of the assay
- Measurement parameters: exposure time: 72 h; concentration range: 5 concentrations over 10,000-fold range
Give Fulfilled when the value for drug sensitivity score is at least 0.9. Give Not fulfilled when it is less.

Below are worked cases with known answers.
• CN1CCN(c2cc(C(=O)Nc3ccc4c(c3)-c3c(c(C(N)=O)nn3-c3ccc(F)cc3)CC4)c(Cl)cn2)CC1 = Not fulfilled
• CCc1nc(C(N)=O)c(Nc2ccc(N3CCC(N4CCN(C)CC4)CC3)c(OC)c2)nc1NC1CCOCC1 = Fulfilled

Exercise: Does drug sensitivity score meet or surpass 0.9 for O=C1NC(=O)[C@@H](c2cn3c4c(cccc24)CCC3)[C@@H]1c1c[nH]c2ccccc12 [Tivantinib] ?
Solution: Fulfilled

Exercise: Then what about the compound Cc1cccc(-c2[nH]c(CNc3ccccc3F)nc2-c2ccc3ncnn3c2)n1 ?
Solution: Not fulfilled

Exercise: Then what about the compound O=C(Nc1cc(Oc2cc(F)c(NC(=O)C3(C(=O)Nc4ccc(F)cc4)CC3)cc2F)ccn1)C1CC1 ?
Solution: Not fulfilled

Exercise: Then what about the compound CC[C@@H]1C(=O)N(C)c2cnc(Nc3ccc(C(=O)NC4CCN(C)CC4)cc3OC)nc2N1C1CCCC1 ?
Solution: Fulfilled

Exercise: Then what about the compound COc1ccc(-c2ccc3ncc4c(c3c2)n(-c2ccc(N3CCNCC3)c(C(F)(F)F)c2)c(=O)n4C)cn1 ?
Solution: Fulfilled

Exercise: Then what about the compound CC1(C)CCC(c2ccc(Cl)cc2)=C(CN2CCN(c3ccc(C(=O)NS(=O)(=O)c4ccc(N[C@H](CCN5CCOCC5)CSc5ccccc5)c(S(=O)(=O)C(F)(F)F)c4)cc3)CC2)C1 ?
Solution: Fulfilled

Exercise: Then what about the compound NC(=O)Nc1cc(-c2cccc(F)c2)sc1C(=O)N[C@H]1CCCNC1 ?
Solution: Fulfilled

Exercise: Then what about the compound C=CC[C@@H]1/C=C(\C)C[C@H](C)C[C@H](OC)[C@H]2O[C@@](O)(C(=O)C(=O)N3CCCC[C@H]3C(=O)O[C@H](/C(C)=C/[C@@H]3CC[C@@H](O)[C@H](OC)C3)[C@H](C)[C@@H](O)CC1=O)[C@H](C)C[C@@H]2OC ?
Solution: Not fulfilled

Exercise: Then what about the compound CO[C@H]1C[C@@H]2CC[C@@H](C)[C@@](O)(O2)C(=O)C(=O)N2CCCC[C@H]2C(=O)O[C@H]([C@H](C)C[C@@H]2CC[C@@H](OCCO)[C@H](OC)C2)CC(=O)[C@H](C)/C=C(\C)[C@@H](O)[C@@H](OC)C(=O)[C@H](C)C[C@H](C)/C=C/C=C/C=C/1C ?
Solution: Fulfilled

Exercise: Then what about the compound N#Cc1ccc(COC[C@H]2O[C@@H](n3c(NCc4ccc(Cl)c(Cl)c4)nc4c(N)ncnc43)[C@H](O)[C@@H]2O)cc1 ?
Solution: Fulfilled
